Test system: MDA-MB-468 breast
Experiment: NCI-60 one-dose screen, 48 h
Conditions: 10 µM unless noted
Protocol: Growth inhibition of the MDA-MB-468 human Breast tumor cell line is measured as a screen for anti-cancer activity. Cells are grown in 96 well plates and exposed to the test compound for 48 hours. Compounds are tested at a single concentration, which is 10^-5 M for most compounds. The reported endpoint is percent growth (GI% or GIPRCNT), where numbers from 0 - 100% represent growth inhibition, and numbers from -100% - 0 represent cell death. […]
Compounds without any hit were thinned out: in the full panel of roughly 83,000, 20% have a hit. Calls of active or inactive are those of the source. How the source made its calls: active means growth percent below 10; inactive means the rest.
One label from this list, please: yes (1) for active, no (0) for inactive

IN: Outcome logged for C=C(C)[C@@H]1CC[C@]2(C(=O)N3CCNCC3)CC[C@]3(C)[C@H](CC[C@@H]4[C@@](C)(CCC(=O)N5CCNCC5)[C@H](C(=C)C)CC[C@]43C)[C@@H]12 in this assay:
OUT: no (0)

IN: Outcome logged for COc1ncc(-c2ccc3ncnc(Nc4cccc(Cl)c4)c3c2)cc1NS(C)(=O)=O in this assay:
OUT: yes (1)

IN: Outcome logged for Cc1cccc2c(=O)c3c(sc12)c(NCCCNCCO)nc1ccccc13 in this assay:
OUT: no (0)

Now consider the entry below.
IN: Outcome logged for COc1ccc(-n2nc(C)c3c(Oc4ccc(NC(=O)Nc5c(Cl)cccc5Cl)cc4)ncnc32)cc1 in this assay:
OUT: no (0)

###

system: MDA-MB-468 breast; test: NCI-60 one-dose screen, 48 h; settings: 10 µM unless noted
About 83,000 compounds went through this panel and 20% of them were active in at least one assay; those are over-represented in the sample as a whole. Active and inactive are the calls of the source. The calls were made as follows: active = growth percent below 10; inactive = the rest.
One label from this list, please: true (1) (active), false (0) (inactive)

The following compounds have reported results that may help.
IN: Outcome logged for COc1cccc(C(=O)OCCn2nc3c4c(cccc42)C(=O)c2ccccc2-3)c1O in this assay:
OUT: false (0)

IN: Outcome logged for CS(=O)(=O)c1ccc(NC(=O)c2ccccc2)nc1 in this assay:
OUT: false (0)

Further cases:
IN: Outcome logged for O=C1[C@@H]2Cc3c([nH]c4ccccc34)[C@H](c3ccc(Br)cc3)N2C(=O)CN1C1CCN(Cc2c(Cl)cccc2Cl)CC1 in this assay:
OUT: false (0)

IN: Outcome logged for CCn1c(-c2nonc2N)nc2c(C#CC(C)(C)O)ncc(OC[C@H]3CCCNC3)c21 in this assay:
OUT: false (0)

IN: Outcome logged for COc1ccc(-c2ccc3c(N4CCOC[C@@H]4C)nc(N4CCOC[C@@H]4C)nc3n2)cc1CO in this assay:
OUT: true (1)

IN: Outcome logged for CCNC(=O)CCCCC(=O)c1c(C)[nH]c(/C=C2\N=C(c3ccc[nH]3)C=C2OC)c1C in this assay:
OUT: true (1)

IN: Outcome logged for CN1CCN(CCOc2ccc(-c3cnc4c(-c5ccc(F)cc5)cnn4c3)cc2)CC1 in this assay:
OUT: false (0)

IN: Outcome logged for CC(=O)OC(C(=O)c1ccccc1)c1ccccc1 (stereo not given) in this assay:
OUT: false (0)

IN: Outcome logged for COc1cc(OC)c(C(=O)/C=C/c2ccc(C#N)cc2)c(OC)c1 in this assay:
OUT: true (1)

IN: Outcome logged for C1CCCCNCCC1 in this assay:
OUT: false (0)

IN: Outcome logged for COc1ccc(N2C(=O)CC(c3cc(OC)c(OC)c(OC)c3)C3C2=NC(=O)N3C)cc1 (stereo not given) in this assay:
OUT: false (0)

IN: Outcome logged for COc1ccc(-c2nc(N=Nc3c(O)[nH]c4ccccc34)nc(N3CCOCC3)c2C#N)cc1 in this assay:
OUT: false (0)

IN: Outcome logged for COc1ccc(CNc2nc3ccccc3c3c(=O)c4ccccc4sc23)cc1OC in this assay:
OUT: false (0)

IN: Outcome logged for CC(=O)N1CCN(c2ccc(OCC3CO[C@](Cn4ccnc4)(c4ccc(Cl)cc4Cl)O3)cc2)CC1 (stereo not given in full) in this assay:
OUT: false (0)

IN: Outcome logged for COc1ccc(NC(=O)c2ccc(C(=O)Nc3ccc(OC)cc3OC)cc2)c(OC)c1 in this assay:
OUT: false (0)

IN: Outcome logged for COc1cc(-c2nc(SCC(C)C)nc(Nc3cccc4ccccc34)c2C#N)cc(OC)c1OC in this assay:
OUT: false (0)

IN: Outcome logged for COC(=O)c1nc(-c2ccccc2)oc1S(=O)(=O)Cc1ccccc1 in this assay:
OUT: false (0)

IN: Outcome logged for CN(C)CCCC1(c2ccc(F)cc2)OCc2cc(-c3cncc4ccccc34)ccc21 (stereo not given) in this assay:
OUT: true (1)

IN: Outcome logged for CCCCCCCC/C=C\CCCCCCCCOc1ccccc1CC(=O)NCC[N+]1(C)CCCCC1 in this assay:
OUT: true (1)

IN: Outcome logged for OC(c1cc2cc(Cl)ccc2c2cc(C(F)(F)F)ccc12)C1CCCCN1 (stereo not given) in this assay:
OUT: true (1)

Where do the numbers come from? From PubChem BioAssay (NCI).
